Value source: patent US5270302A

# SYSTEM_UNDER_TEST: Type-A CCK receptor (Cavia porcellus, UniProt Q63931)
# Construct: Cortical and pancreatic membranes were prepared as described; from tissue; host or cells: guinea pig pancreas membranes
# ASSAY_PROTOCOL: Radioligand binding of [125I]BH-CCK-8 in guinea pig pancreatic membrane preparations
# RUN_CONDITIONS: guinea pig pancreatic membranes, 37° C., 150 min; read-out: IC50 (nM) 125I-BH-CCK-8 Type-A receptor
*1 amine or outer side, *2 acyl side, *3 side chain or, on linkers, in order; H or OH if unused. Where a SMILES comes first, the peptide text is derived from it. Side-chain parts run from the residue outwards. [ ]: non-standard residue; d: D form. The star is where a group is joined. 1Nal = N[C@@H](Cc1cccc2ccccc12)C(=O)O; Desaminotyrosyl = O=C(CCc1ccc(O)cc1)*; NMeF = CN[C@@H](Cc1ccccc1)C(=O)O; NMeD = CN[C@@H](CC(=O)O)C(=O)O; X1 = O=C(C=Cc1ccc(O)cc1)*; X15 = Clc1cccc(N*)c1Cl; Boc = CC(C)(C)OC(=O)*; CO = O=C([*:1])[*:2]; X16 = COc1ccccc1N*
Each record gets a class by IC50: low (below 10 nM), mid (10 nM to below 30 nM), high (30 nM or more)

Ask: Textbook exercise: identify the category of the compound given here, CC(C)(C)OC(=O)N[C@@H](Cc1c[nH]c2ccccc12)C(=O)N[C@@H](CCCCNC(=O)Nc1cccc(Cl)c1Cl)C(=O)N[C@@H](CC(=O)O)C(=O)N[C@@H](Cc1ccccc1)C(N)=O [Example 125] (Boc-WK([CO-X15])DF-NH2) , according to its measured value.
Reply: low

Ask: Exam item: assign CN(C(=O)[C@H](CCCCNC(=O)C=Cc1ccc(O)cc1)NC(=O)[C@H](Cc1c[nH]c2ccccc12)NC(=O)OC(C)(C)C)[C@@H](CC(=O)O)C(=O)N[C@@H](Cc1ccccc1)C(N)=O [Example 71] (Boc-WK(X1)[NMeD]F-NH2) to the correct category.
Reply: low

Ask: Which IC50 band matches Cc1ccccc1NC(=O)NCCCC[C@H](NC(=O)C(C)Cc1c[nH]c2ccccc12)C(=O)N[C@@H](CC(=O)O)C(=O)N(C)[C@@H](Cc1ccccc1)C(N)=O (stereo partly drawn) [Example 104] ?
Reply: high

Ask: Each compound maps to one class by IC50. Which class for Cc1ccccc1NC(=O)NCCCC[C@H](NC(=O)CCc1cccc2ccccc12)C(=O)N[C@@H](CC(=O)O)C(=O)N(C)[C@@H](Cc1ccccc1)C(N)=O [Example 111] ?
Reply: high

Ask: Sort into band: CC(C)(C)OC(=O)N[C@@H](Cc1c[nH]c2ccccc12)C(=O)N[C@@H](CCCCNC(=O)CCc1ccc(O)cc1)C(=O)N[C@@H](CC(=O)O)C(=O)N[C@@H](Cc1cccc2ccccc12)C(N)=O [Example 21] (Boc-WK(Desaminotyrosyl)D[1Nal]-NH2)
Reply: high

Ask: # classify by IC50 band: COc1ccccc1NC(=O)NCCCC[C@H](NC(=O)[C@H](Cc1c[nH]c2ccccc12)NC(=O)OC(C)(C)C)C(=O)N[C@@H](CC(=O)O)C(=O)N[C@@H](Cc1ccccc1)C(N)=O [Example 43] (Boc-WK([CO-X16])DF-NH2)
Reply: mid

Ask: Category of CCOC(=O)C(C)(Cc1c[nH]c2ccccc12)C(=O)N[C@@H](CCCCNC(=O)Nc1ccccc1C)C(=O)N[C@@H](CC(=O)O)C(=O)N(C)[C@@H](Cc1ccccc1)C(N)=O (stereo partly drawn) [Example 107] , please.
Reply: mid

Ask: Entry CN(C(=O)[C@H](CCCCNC(=O)C=Cc1ccc(O)cc1)NC(=O)[C@H](Cc1c[nH]c2ccccc12)NC(=O)OC(C)(C)C)[C@@H](CC(=O)O)C(=O)N(C)[C@@H](Cc1ccccc1)C(N)=O [Example 72] (Boc-WK(X1)[NMeD][NMeF]-NH2) belongs to which category?
Reply: mid

Ask: Which class holds Cc1ccccc1NC(=O)NCCCC[C@H](NC(=O)C(F)Cc1c[nH]c2ccccc12)C(=O)N[C@@H](CC(=O)O)C(=O)N[C@@H](Cc1ccccc1)C(N)=O (stereo partly drawn) [Example 63] ?
Reply: mid

###

# SYSTEM_UNDER_TEST: Type-A CCK receptor (Cavia porcellus, UniProt Q63931)
# Construct: Cortical and pancreatic membranes were prepared as described; from tissue; host or cells: guinea pig pancreas membranes
# Sequence (Q63931 1-430): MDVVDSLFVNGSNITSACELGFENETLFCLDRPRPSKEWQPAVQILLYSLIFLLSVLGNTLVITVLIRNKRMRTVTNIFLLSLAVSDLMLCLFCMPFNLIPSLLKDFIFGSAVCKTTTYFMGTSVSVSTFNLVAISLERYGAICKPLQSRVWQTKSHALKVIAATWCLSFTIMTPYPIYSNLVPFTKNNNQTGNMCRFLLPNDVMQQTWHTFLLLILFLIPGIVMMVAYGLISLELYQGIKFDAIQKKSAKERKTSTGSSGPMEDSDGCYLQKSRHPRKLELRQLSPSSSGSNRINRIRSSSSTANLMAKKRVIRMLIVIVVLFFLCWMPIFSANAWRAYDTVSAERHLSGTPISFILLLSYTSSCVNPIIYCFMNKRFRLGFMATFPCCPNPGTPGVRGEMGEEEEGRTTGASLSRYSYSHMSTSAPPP
# ASSAY_PROTOCOL: Radioligand binding of [125I]BH-CCK-8 in guinea pig pancreatic membrane preparations
*1 amine or outer side, *2 acyl side, *3 side chain or, on linkers, in order; H or OH if unused. Where a SMILES comes first, the peptide text is derived from it. Side-chain parts run from the residue outwards. [ ]: non-standard residue; d: D form. The star is where a group is joined. NMeF = CN[C@@H](Cc1ccccc1)C(=O)O; NH(2-Me-phenyl) = Cc1ccccc1N*; Suc = O=C(CCC(=O)[*:2])[*:1]; X14 = O=[N+]([O-])c1ccccc1N*; Boc = CC(C)(C)OC(=O)*; CO = O=C([*:1])[*:2]
RECORDED_ENDPOINT: IC50 (nM)
Give bare numbers, in nM.

[[record]]
compound = "Cc1ccccc1NC(=O)NCCCC[C@H](NC(=O)[C@H](Cc1c[nH]c2ccccc12)NC(=O)CCC(=O)O)C(=O)N[C@@H](CC(=O)O)C(=O)N(C)[C@@H](Cc1ccccc1)C(N)=O [Example 94] (Suc-WK([CO-NH(2-Me-phenyl)])D[NMeF]-NH2)"
unit = "nM"
value_observed = 16


Ask: Could you please provide reported IC50 for CC(C)(C)OC(=O)N[C@@H](Cc1c[nH]c2ccccc12)C(=O)N[C@@H](CCCCNC(=O)Nc1ccccc1[N+](=O)[O-])C(=O)N[C@@H](CC(=O)O)C(=O)N[C@@H](Cc1ccccc1)C(N)=O [Example 34] (Boc-WK([CO-X14])DF-NH2) ? Thanks!
Reply: 23

###

So I've got a bunch of compounds here, and I need their log10(IC50) values.
# SYSTEM_UNDER_TEST: Type-A CCK receptor (Cavia porcellus, UniProt Q63931)
# Construct: Cortical and pancreatic membranes were prepared as described; from tissue; host or cells: guinea pig pancreas membranes
# ASSAY_PROTOCOL: Radioligand binding of [125I]BH-CCK-8 in guinea pig pancreatic membrane preparations
# RUN_CONDITIONS: IC50 (nM) 125I-BH-CCK-8 Type-A receptor, guinea pig pancreatic membranes, 37° C., 150 min
*1 amine or outer side, *2 acyl side, *3 side chain or, on linkers, in order; H or OH if unused. Where a SMILES comes first, the peptide text is derived from it. Side-chain parts run from the residue outwards. [ ]: non-standard residue; d: D form. The star is where a group is joined. ξ: configuration not given here. NMeW = CN[C@@H](Cc1c[nH]c2ccccc12)C(=O)O; ξαMeW = CC(N)(Cc1c[nH]c2ccccc12)C(=O)O; NMeF = CN[C@@H](Cc1ccccc1)C(=O)O; Cha = N[C@@H](CC1CCCCC1)C(=O)O; NMeD = CN[C@@H](CC(=O)O)C(=O)O; NH(2-Me-phenyl) = Cc1ccccc1N*; Boc = CC(C)(C)OC(=O)*; CO = O=C([*:1])[*:2]; Moc = COC(=O)*
Scale: decimal log of IC50, IC50 in nM.

// worked examples, log10(IC50) included
[[record]]
compound = "Cc1ccccc1NC(=O)NCCCC[C@H](NC(=O)C(C)(N)Cc1c[nH]c2ccccc12)C(=O)N[C@@H](CC(=O)O)C(=O)N(C)[C@@H](Cc1ccccc1)C(N)=O (single isomer, unassigned; isomer a) [Example 98]"
value_observed = 0.69

[[record]]
compound = "Cc1ccccc1NC(=O)NCCCC[C@H](NC(=O)C(C)(N)Cc1c[nH]c2ccccc12)C(=O)N[C@@H](CC(=O)O)C(=O)N(C)[C@@H](Cc1ccccc1)C(N)=O (single isomer, unassigned; isomer b) [Example 99]"
value_observed = 1.83

[[record]]
compound = "CC(=O)N[C@@H](Cc1c[nH]c2ccccc12)C(=O)N[C@@H](CCCCNC(=O)Nc1ccccc1C)C(=O)N[C@@H](CC(=O)O)C(=O)N(C)[C@@H](Cc1ccccc1)C(N)=O [Example 85] (Ac-WK([CO-NH(2-Me-phenyl)])D[NMeF]-NH2)"
value_observed = 0.76

[[record]]
compound = "CN[C@@H](Cc1c[nH]c2ccccc12)C(=O)N[C@@H](CCCCNC(=O)Nc1ccccc1C)C(=O)N(C)[C@@H](CC(=O)O)C(=O)N[C@@H](Cc1ccccc1)C(N)=O [Example 69] (H-[NMeW]K([CO-NH(2-Me-phenyl)])[NMeD]F-NH2)"
value_observed = 1.15

[[record]]
compound = "CN[C@@H](Cc1c[nH]c2ccccc12)C(=O)N[C@@H](CCCCNC(=O)Nc1ccccc1C)C(=O)N[C@@H](CC(=O)O)C(=O)N(C)[C@@H](Cc1ccccc1)C(N)=O [Example 101] (H-[NMeW]K([CO-NH(2-Me-phenyl)])D[NMeF]-NH2)"
value_observed = 0.97

[[record]]
compound = "COC(=O)N[C@@H](Cc1c[nH]c2ccccc12)C(=O)N[C@@H](CCCCNC(=O)Nc1ccccc1C)C(=O)N(C)[C@@H](CC(=O)O)C(=O)N(C)[C@@H](Cc1ccccc1)C(N)=O [Example 124] (Moc-WK([CO-NH(2-Me-phenyl)])[NMeD][NMeF]-NH2)"
value_observed = 0.65


Provide log10(IC50) values for the following items, in order.
1. Cc1ccccc1NC(=O)NCCCC[C@H](NC(=O)[C@H](Cc1c[nH]c2ccccc12)NC(=O)OC(C)(C)C)C(=O)N[C@@H](CC(=O)O)C(=O)N[C@@H](CC1CCCCC1)C(N)=O [Example 116] (Boc-WK([CO-NH(2-Me-phenyl)])D[Cha]-NH2)
2. COC(=O)N[C@@H](Cc1c[nH]c2ccccc12)C(=O)N[C@@H](CCCCNC(=O)Nc1ccccc1C)C(=O)N(C)[C@@H](CC(=O)O)C(=O)N[C@@H](Cc1ccccc1)C(N)=O [Example 81] (Moc-WK([CO-NH(2-Me-phenyl)])[NMeD]F-NH2)
3. Cc1ccccc1NC(=O)NCCCC[C@H](NC(=O)C(C)(Cc1c[nH]c2ccccc12)NC(=O)OC(C)(C)C)C(=O)N[C@@H](CC(=O)O)C(=O)N[C@@H](Cc1ccccc1)C(N)=O (stereo partly drawn) [Example 96] (Boc-[ξαMeW]K([CO-NH(2-Me-phenyl)])DF-NH2)

Reply:
1. 1.00
2. 0.32
3. 1.20
